Cited source: the EternaBench riboswitch data

System: MS2 coat protein
Experiment: apparent Kd, MS2 coat protein; higher = weaker binding; RNA-MaP array; FMN 200 µM where present
Conditions: ligand present: flavin mononucleotide; designed as: ON switch for flavin mononucleotide
Mark yes (1) for reported apparent Kd of 20 nM or greater; mark no (0) for anything smaller.

UGAGCGACCACAGGAUAUACUUGAGAAGACCGAGUAGAAGGGUGGAAGAGCGUGCAGUGACAUGAGGAUCACCCAUGUGGUUGU : yes (1)
CGUAGGAUCCAGAAGGCAUGAACAUGAGGAUCACCCAUGUGAAAAGACAUGAGGAUAUGGAUCCUACGAAAAGUGCGAAAGCAC : no (0)
GGUCCAUCAUGAGGAUAUGGCACCUUAUUGGUGCCAGAAGGCAUGUGUAUACACAUGAGGAUCACCCAUGUAAUAAAUUGGACC : yes (1)
GACAUGAGGAUCACCCAUGUCCAACCAGAAGGCCAGGAAUCGGACCCGAGUAUCGGGUUCGAGAUGGAGGAUAUGGGCGCCGAA : yes (1)
AUGCCUAAUGAGAAGGUGUAUAUAAAUUAUAUACAAGGAUAUCGGUCAAGCAUGAAAACAUGAGGAUCACCCAUGUUAAGGCAU : no (0)
CUGUUGGGCUCAGGAUAUCGGGUUUAACAUGAGGAUCACCCAUGUCGUCUGCGAAAGCAGAAUCACGAGAAGGGAGACCAGCGA : no (0)
GACAUACAUGAGGAUCACCCAUGUUCAAACGGGCAAGGAUAUGUGUGGAAACCAUACUAUACAGAAGGUGUCUGUC : no (0)

====

Test system: MS2 coat protein
Assay: apparent Kd, MS2 coat protein; higher = weaker binding; RNA-MaP array; FMN 200 µM where present
Conditions: ligand present: flavin mononucleotide; designed as: OFF switch for flavin mononucleotide
METRIC: apparent Kd (nM)

GGUUGGCGAGGAUAUACAUGAGGAUCACCCAUGUGGUCCUGUGGCUGGUCUUACCUUUGUAGAAGGCGCGGGUC : 93.2
AAGUCGACGGUGAGGAUAUUGGUUGAACGACAGAUUAAGAAGGUACAUGAGGAUCACCCAUGUGGGUAACGUCG : 83
UUUAUUUAGGCAGGAUAUACAUGUAUAUAUAUUUCUUUAUAUCUUAUUACAUGAGGAUCACCCAUGUAGAAGGGCCUUAUUAUA : 23.6
GUACUGACAGGAUAUACAUGAGGAUCACCCAUGUCCUUAUGCUGACAAAAGUCAGCGUGUAGAAGGGUCUGUAC : 385
UGAUCGAGAGAUCUUAGAUUCUGGUAGGAUAUACAUAAAAUGCGCUUUACAUGAGGAUCACCCAUGUAGAAGGACUAGAGUCUA : 9.8
AAACUCAGAGGAUAUACAUAACACAGACUCUUCAUGCGUUCACAUGAGGAUCACCCAUGUAGAAGGCUGACAAC : 85.1
UGAUCUAUGUAGAAGGCCCAUAUCUAUAUUUAGGGAGGAUAUACAUGAGGAUCACCCAUGUAUAGAGCGAGUGGACUCGUCACC : 47.3

====

Each record here notes measured apparent Kd.
System: MS2 coat protein
Assay: apparent Kd, MS2 coat protein; higher = weaker binding; RNA-MaP array
Settings: designed as: ON switch for tryptophan; no ligand
METRIC: apparent Kd

UUGCUCUCUUCGGCCGCCACUACACGCGAGUUGACGACUGGCGGACAUGAGGAUCACCCAUGUCAUAGGACCGGGAAUCACGCUG : 13.4 nM
AAAUACAUGAGGAUCACCCAUGUCAAUAAUCGAGGACCGGUACGGCCGCCACUCGAUCGGCCAAGAAAAUGAAAGAUGAUCUCUA : 26.9 nM
CACUACAUGAGGAUCACCCAUGUCUUCCGACGAGGACCGGUACGGCCGCCACUCGAACCUCCAACUAAUACCUCAACCGUCUGAU : 80.5 nM
AACCACGAGUCGGCCGCCACUUGCAACUAGUUUCAGAAGCAGAAACAUGAGGAUCACCCAUGUCGAAGGACCGGGACUUUACAGG : 23.2 nM
AGUUACAUGAGGAUCACCCAUGUCCGGUUGCGAGGACCGGUACGGCCGCCACUCGGGUACAUCCCAGAAAAUACUGAAUGCCUGC : 55.4 nM
CCCUCCAGAACGGCCGCCACUAAAGGGUUGUGUGCGACUCCGGAACAUGAGGAUCACCCAUGUCUUAGGACCGGGUUCCCUUCUA : 62 nM
